List of Mineralocorticoid receptor (MR) Competition factor values.
Biological target: mineralocorticoid receptor (Homo sapiens (Human), UniProt P08235)
Sequence (P08235 whole entry): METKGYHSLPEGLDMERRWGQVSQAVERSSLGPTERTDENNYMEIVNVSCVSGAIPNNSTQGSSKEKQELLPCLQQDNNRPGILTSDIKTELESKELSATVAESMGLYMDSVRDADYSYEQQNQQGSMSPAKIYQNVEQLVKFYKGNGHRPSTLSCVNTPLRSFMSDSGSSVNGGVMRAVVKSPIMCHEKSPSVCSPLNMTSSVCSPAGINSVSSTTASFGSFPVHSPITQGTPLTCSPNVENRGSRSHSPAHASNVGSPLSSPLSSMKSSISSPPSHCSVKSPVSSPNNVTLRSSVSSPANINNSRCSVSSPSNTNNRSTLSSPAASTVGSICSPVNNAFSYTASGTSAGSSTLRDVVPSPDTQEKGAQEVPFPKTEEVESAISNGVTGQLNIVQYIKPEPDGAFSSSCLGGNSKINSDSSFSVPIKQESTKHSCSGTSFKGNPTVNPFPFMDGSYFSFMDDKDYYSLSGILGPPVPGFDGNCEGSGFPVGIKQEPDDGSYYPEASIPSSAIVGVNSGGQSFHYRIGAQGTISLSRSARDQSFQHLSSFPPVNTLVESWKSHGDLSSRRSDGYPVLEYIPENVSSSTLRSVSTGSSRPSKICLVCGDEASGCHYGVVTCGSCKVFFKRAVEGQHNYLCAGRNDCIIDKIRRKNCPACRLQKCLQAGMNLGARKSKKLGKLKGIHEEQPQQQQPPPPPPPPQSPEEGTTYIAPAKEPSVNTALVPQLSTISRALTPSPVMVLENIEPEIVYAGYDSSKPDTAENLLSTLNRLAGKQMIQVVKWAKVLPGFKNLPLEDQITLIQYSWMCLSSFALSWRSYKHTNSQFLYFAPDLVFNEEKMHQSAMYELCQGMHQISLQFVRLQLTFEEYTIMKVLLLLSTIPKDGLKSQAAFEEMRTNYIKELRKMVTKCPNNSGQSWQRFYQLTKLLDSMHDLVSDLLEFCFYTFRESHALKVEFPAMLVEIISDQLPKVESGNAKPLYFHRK
Experiment: Mineralocorticoid receptor binding test (displacement of 3H-aldosterone, cytosol from Hi5 insect cells)
Details: reference substance 3H-aldosterone
Just the number, please.

The cases that follow already have their Mineralocorticoid receptor (MR) Competition factor on record.
{"MOLECULE": "CC[C@]12CC[C@H]3[C@@H](CCC4=C(Cl)C(=O)CC[C@@H]43)[C@@H]1CC[C@@]21C=CC(=O)O1", "VALUE": 47.0}
{"MOLECULE": "C[C@]12CC[C@H]3[C@@H](CCC4=CC(=O)CC[C@@H]43)[C@@H]1CC1(CC1)[C@@]21C=CC(=O)O1 (stereo in doubt)", "VALUE": 12.7}

Exam item: Item under review: C[C@]12CC[C@H]3[C@@H](C=CC4=CC(=O)CC[C@@H]43)[C@@H]1CC[C@@]21C=CC(=O)O1 (stereo in doubt) . Reported Mineralocorticoid receptor (MR) Competition factor?
Marked response: 33.0

Exam item: Item under review: CC[C@]12CC[C@H]3[C@@H](CCC4=CC(=O)CC[C@@H]43)[C@@H]1CC[C@@]21C=CC(=O)O1 (stereo in doubt) . Reported Mineralocorticoid receptor (MR) Competition factor?
Marked response: 2.4

Exam item: Item under review: CC[C@@H]1CC2=CC(=O)CC[C@@H]2[C@H]2CC[C@@]3(C)[C@@H](CC[C@@]34C=CC(=O)O4)[C@H]12 (stereo in doubt) . Reported Mineralocorticoid receptor (MR) Competition factor?
Marked response: 8.7

----------
Target: androgen receptor (Homo sapiens (Human))
Assay: cell-based
Conditions: in-vitro transactivation, PC3 cells
Method: 6. Determination of Androgenic/Antiandrogenic Action by Means of Transactivation Tests: The androgenic/antiandrogenic action of the test substances was determined as for the transactivation tests described above. The following modifications were made: In this case reporter cell lines were used (PC3 cells) that express the androgen receptor, and a reporter construct that contains luciferase under the control of a steroid hormone-responsive promoter. […]
ASSAY_READOUT: Androgen receptor Agonism efficacy (%)
Record the value in %, omitting the unit from your answer.

Exam item: Item under review: CC[C@]12CC[C@H]3[C@@H](C=CC4=CC(=O)CC[C@@H]43)[C@@H]1CC[C@@]21C=CC(=O)O1 (stereo in doubt) . Reported Androgen receptor Agonism efficacy?
Marked response: 5

----------
Target: androgen receptor (Homo sapiens (Human), UniProt P10275)
Sequence (P10275 whole entry, species assumed): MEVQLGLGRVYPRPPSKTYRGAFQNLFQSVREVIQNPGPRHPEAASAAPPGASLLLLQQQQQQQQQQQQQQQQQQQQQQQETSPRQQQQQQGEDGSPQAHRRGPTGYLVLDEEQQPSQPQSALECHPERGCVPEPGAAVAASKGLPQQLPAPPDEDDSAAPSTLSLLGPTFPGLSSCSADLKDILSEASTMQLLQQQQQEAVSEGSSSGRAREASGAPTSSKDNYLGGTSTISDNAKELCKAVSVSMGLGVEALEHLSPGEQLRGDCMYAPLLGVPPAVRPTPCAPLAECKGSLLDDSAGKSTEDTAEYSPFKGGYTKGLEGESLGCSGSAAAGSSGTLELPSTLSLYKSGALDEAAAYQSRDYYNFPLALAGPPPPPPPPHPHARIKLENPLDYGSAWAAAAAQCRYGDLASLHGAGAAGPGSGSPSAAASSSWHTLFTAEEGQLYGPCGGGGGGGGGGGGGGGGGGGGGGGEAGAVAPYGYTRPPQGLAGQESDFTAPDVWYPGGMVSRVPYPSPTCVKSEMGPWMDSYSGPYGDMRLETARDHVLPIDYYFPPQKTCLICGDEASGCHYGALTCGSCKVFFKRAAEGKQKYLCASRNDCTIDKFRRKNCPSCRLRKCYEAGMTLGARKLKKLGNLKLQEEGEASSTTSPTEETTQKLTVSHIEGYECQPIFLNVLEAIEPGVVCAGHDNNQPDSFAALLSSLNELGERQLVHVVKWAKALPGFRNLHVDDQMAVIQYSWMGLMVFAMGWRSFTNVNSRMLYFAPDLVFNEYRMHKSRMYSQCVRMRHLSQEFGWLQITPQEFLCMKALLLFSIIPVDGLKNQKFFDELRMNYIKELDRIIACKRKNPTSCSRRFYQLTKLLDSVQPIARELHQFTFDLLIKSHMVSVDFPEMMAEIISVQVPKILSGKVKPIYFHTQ
Assay: cell-based
ASSAY_READOUT: EC50 (nM)
Record the value in nM, omitting the unit from your answer.

{"MOLECULE": "C=C[C@@H]1CC2=CC(=O)CC[C@@H]2[C@H]2CC[C@@]3(C)[C@@H](CC[C@@]34C=CC(=O)O4)[C@@H]21 (stereo in doubt) [Example 4A]", "STUDY_SYSTEM": "androgen receptor (Homo sapiens (Human), UniProt P10275)", "EC50 / nM": 13}
{"MOLECULE": "C[C@]12CC[C@H]3[C@@H](CC4(CC4)C4=CC(=O)CC[C@@H]43)[C@@H]1CC[C@@]21C=CC(=O)O1 [Example 18]", "STUDY_SYSTEM": "androgen receptor (Homo sapiens (Human), UniProt P10275)", "EC50 / nM": 3.7}
{"MOLECULE": "C[C@]12CC[C@H]3[C@@H]([C@H](C4CC4)CC4=CC(=O)CC[C@@H]43)[C@@H]1CC[C@@]21C=CC(=O)O1 (stereo in doubt) [Example 12A]", "STUDY_SYSTEM": "androgen receptor (Homo sapiens (Human), UniProt P10275)", "EC50 / nM": 67}
{"MOLECULE": "C[C@]12CC[C@H]3[C@@H](C=CC4=CC(=O)CC[C@@H]43)[C@@H]1CC[C@@]21C=CC(=O)O1 (stereo in doubt) [Example 1]", "STUDY_SYSTEM": "androgen receptor (Homo sapiens (Human), UniProt P10275)", "EC50 / nM": 130}
{"MOLECULE": "CC[C@]12CC[C@H]3[C@@H]([C@H](C4CC4)CC4=CC(=O)CC[C@@H]43)[C@@H]1CC[C@@]21C=CC(=O)O1 (stereo in doubt) [Example 11A]", "STUDY_SYSTEM": "androgen receptor (Homo sapiens (Human), UniProt P10275)", "EC50 / nM": 10}

Exam item: Item under review: CC[C@@H]1CC2=CC(=O)CC[C@@H]2[C@H]2CC[C@@]3(C)[C@@H](CC[C@@]34C=CC(=O)O4)[C@H]12 (stereo in doubt) [Example 3A] . Reported EC50?
Marked response: 25

Exam item: Item under review: C=C[C@@H]1CC2=CC(=O)CC[C@@H]2[C@H]2CC[C@@]3(CC)[C@@H](CC[C@@]34C=CC(=O)O4)[C@@H]21 (stereo in doubt) [Example 10A] . Reported EC50?
Marked response: 1.3

----------
Target: mineralocorticoid receptor (Homo sapiens (Human))
Test: Antimineralocorticoid action by transactivation test (MDCK luciferase reporter cells)
Assay type: cell-based
Details: in-vitro transactivation, 1 nM aldosterone
ASSAY_READOUT: Mineralocorticoid receptor Antagonism efficacy (%)
Record the value in %, omitting the unit from your answer.

{"MOLECULE": "CC[C@]12CC[C@H]3[C@@H]([C@H](C4CC4)CC4=CC(=O)CC[C@@H]43)[C@@H]1CC[C@@]21C=CC(=O)O1 (stereo in doubt) [Example 11A]", "UNIT_INFO": "%", "VALUE": 88.8}
{"MOLECULE": "C[C@]12CC[C@H]3[C@@H](CC4(CC4)C4=CC(=O)CC[C@@H]43)[C@@H]1CC[C@@]21C=CC(=O)O1 [Example 18]", "UNIT_INFO": "%", "VALUE": 89.3}
{"MOLECULE": "C[C@]12CC[C@H]3[C@@H](C=CC4=CC(=O)CC[C@@H]43)[C@@H]1CC[C@@]21C=CC(=O)O1 (stereo in doubt) [Example 1]", "UNIT_INFO": "%", "VALUE": 93.2}
{"MOLECULE": "C[C@]12CC[C@H]3[C@@H]([C@H](C4CC4)CC4=CC(=O)CC[C@@H]43)[C@@H]1CC[C@@]21C=CC(=O)O1 (stereo in doubt) [Example 12A]", "UNIT_INFO": "%", "VALUE": 116.9}

Exam item: Item under review: C[C@@H]1CC2=CC(=O)CC[C@@H]2[C@H]2CC[C@@]3(C)[C@@H](CC[C@@]34C=CC(=O)O4)[C@@H]21 (stereo in doubt) [Example 2A] . Reported Mineralocorticoid receptor Antagonism efficacy?
Marked response: 129.8

Exam item: Item under review: CC[C@]12CC[C@H]3[C@@H]([C@H](C)CC4=CC(=O)CC[C@@H]43)[C@@H]1CC[C@@]21C=CC(=O)O1 (stereo in doubt) [Example 8A] . Reported Mineralocorticoid receptor Antagonism efficacy?
Marked response: 113.8

Exam item: Item under review: CC[C@]12CC[C@H]3[C@@H](CC4(CC4)C4=CC(=O)CC[C@@H]43)[C@@H]1CC[C@@]21C=CC(=O)O1 [Example 16] . Reported Mineralocorticoid receptor Antagonism efficacy?
Marked response: 107.9

Exam item: Item under review: C=C[C@@H]1CC2=CC(=O)CC[C@@H]2[C@H]2CC[C@@]3(C)[C@@H](CC[C@@]34C=CC(=O)O4)[C@@H]21 (stereo in doubt) [Example 4A] . Reported Mineralocorticoid receptor Antagonism efficacy?
Marked response: 120.0

Exam item: Item under review: CC[C@]12CC[C@H]3[C@@H](CCC4=CC(=O)CC[C@@H]43)[C@@H]1CC[C@@]21C=CC(=O)O1 (stereo in doubt) [Example 6] . Reported Mineralocorticoid receptor Antagonism efficacy?
Marked response: 109.6

Exam item: Item under review: C[C@]12CC[C@H]3[C@@H](CCC4=CC(=O)CC[C@@H]43)[C@@H]1CC1(CC1)[C@@]21C=CC(=O)O1 (stereo in doubt) [Example 5] . Reported Mineralocorticoid receptor Antagonism efficacy?
Marked response: 73.1

----------
List of Androgen receptor Competition factor values.
Target: androgen receptor (Homo sapiens (Human))
Conditions: reference substance 3H-testosterone
Just the number, please.

The cases that follow already have their Androgen receptor Competition factor on record.
{"COMPOUND": "C[C@]12CC[C@H]3[C@@H](CCC4=CC(=O)CC[C@@H]43)[C@@H]1CC1(CC1)[C@@]21C=CC(=O)O1 (stereo in doubt)", "STUDY_SYSTEM": "androgen receptor (Homo sapiens (Human))", "Androgen receptor Competition factor": 33.8}
{"COMPOUND": "C[C@]12CC[C@H]3[C@@H]([C@H](C4CC4)CC4=CC(=O)CC[C@@H]43)[C@@H]1CC[C@@]21C=CC(=O)O1 (stereo in doubt) [Example 12A]", "STUDY_SYSTEM": "androgen receptor (Homo sapiens (Human))", "Androgen receptor Competition factor": 9.6}
{"COMPOUND": "CC[C@@H]1CC2=CC(=O)CC[C@@H]2[C@H]2CC[C@@]3(CC)[C@@H](CC[C@@]34C=CC(=O)O4)[C@H]12 (stereo in doubt)", "STUDY_SYSTEM": "androgen receptor (Homo sapiens (Human))", "Androgen receptor Competition factor": 2.3}
{"COMPOUND": "CC[C@]12CC[C@H]3[C@@H]([C@H](C4CC4)CC4=CC(=O)CC[C@@H]43)[C@@H]1CC[C@@]21C=CC(=O)O1 (stereo in doubt) [Example 11A]", "STUDY_SYSTEM": "androgen receptor (Homo sapiens (Human))", "Androgen receptor Competition factor": 3.4}

Exam item: Item under review: C[C@]12CC[C@H]3[C@@H](C=CC4=CC(=O)CC[C@@H]43)[C@@H]1CC[C@@]21C=CC(=O)O1 (stereo in doubt) . Reported Androgen receptor Competition factor?
Marked response: 1000.0
